What EC50 was measured for each of the following?
- assayed target: Bcl-2-related protein A1 (Homo sapiens)
- Sequence (Q16548 whole entry): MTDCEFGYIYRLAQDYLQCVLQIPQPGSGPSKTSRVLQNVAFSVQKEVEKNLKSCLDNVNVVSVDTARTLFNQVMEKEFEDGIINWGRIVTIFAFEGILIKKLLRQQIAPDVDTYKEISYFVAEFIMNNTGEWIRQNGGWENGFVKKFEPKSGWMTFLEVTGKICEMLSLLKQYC
- experiment: inhibitors of Bim binding to Bfl-1, dose response, biochemical, multiplexed, bead-based flow cytometry (AID 1320)
- condition set: inactive by the depositor's call; pH 7.4; 4 °C
Response body: numeric value in µM, unit text excluded.

Entry under review: O=C1CSc2ccc(C(=O)Nc3cccc(S(=O)(=O)Nc4ccc(Br)cc4)c3)cc2N1 . Reported EC50?
5.81

Do the same for COc1ccccc1-n1c(-c2ccccc2)c[nH]c1=S please
0.61

Do the same for O=C1C(=Cc2ccco2)NC(=S)N1c1ccccc1 please
14.8

Do the same for CCCC(=O)OCCNc1cc(Sc2nccn2C)c2nonc2c1[N+](=O)[O-] please
18.1

Do the same for COc1ccc(C2=Nc3cccc4cccc(c34)N2)cc1 please
6.49

Do the same for COc1ccc(/C=C/C(=O)c2cc(Br)ccc(=O)c2O)cc1 please
14

Do the same for CNC(=O)c1c(N)sc2c1CCCCC2 please
4.09

Do the same for CCOc1cc(C2Nc3cccc4cccc(c34)N2)ccc1O please
37.5

Do the same for O=C(N[N-][CH+]c1ccc(-c2ccccc2[N+](=O)[O-])o1)c1cncc(Br)c1 please
33.6

Do the same for Cc1nc2ncccn2c1-c1csc(Nc2ccccc2)n1 please
11.7

Ref: BindingDB's records for doi:10.7270/Q2CN728N
